Tested on: A-375
Assay: Cytotoxicity against human A-375 cells assessed as reduction in cell viability by CCK-8 assay
Format: functional, cell-based
VALUE_TYPE: pIC50
Friendly reminder that pIC50 comes from taking -log10 of the concentration in mol/L.

Looking up "COc1cc2c(NC3CCN(C(C)C)CC3)nc(N3CCC(F)(F)CC3)nc2cc1OCCCN1CCCC1" , I see its pIC50 listed as 5.51
